Reported TGI is given for each of the following molecules.
Tested on: UACC-62 melanoma
PROCEDURE DETAILS: NCI tumour cell line growth inhibition, 48 h
TEST READOUT: TGI

>>> measured("Cc1c(O)c(OC2OC(CO)C(O)C(O)C2O)cc2c1C=C[C@@H]1[C@@]2(C)C(=O)C[C@]2(C)[C@@H]([C@@](C)(O)C(O)/C=C/C(C)(C)O)[C@H](O)C[C@@]12C (some centres undefined)")
"> 100 µM"
>>> measured("C=C1[C@H]2O[C@H]2[C@@H](OC(C)=O)[C@@]2(C)[C@@H](OC(C)=O)C[C@@H](OC(=O)CCC)[C@@](C)(O)[C@@H]2[C@@H](OC(C)=O)[C@]2(O)[C@@H](C)C(=O)O[C@H]2[C@H]1Cl")
"> 100 µM"
>>> measured("CSc1nc(Nc2ccccc2Cl)c2c(N)nn(C)c2n1")
"> 100 µM"
>>> measured("CN(C)C1(N(C)C)Oc2c(c(=O)n(C)c(=O)n2C)C(c2ccc(C(F)(F)F)cc2)C1(F)F (centres undefined)")
"> 100 µM"
